Test description: Pharmacokinetics of DPB after oral DPB or NaDPB and intravenous NaDPB
Assay type: in vivo, Sprague-Dawley rats
Condition: rat, in vivo, po, 150 mg/kg, Oral, analyte DPB, female, read-out: AU0-24
Measured attribute: AUC at 24 h
Please don't drop the unit; write it after the number.

INPUT: Item O=C1NC(=O)C(c2ccccc2)(c2ccccc2)C(=O)N1.[Na] [NaDPB, sodium 5,5-diphenyl barbiturate] has what recorded AUC at 24 h?
OUTPUT: 1990 µg·h/mL

INPUT: So what does the record say about AUC at 24 h for O=C1NC(=O)C(c2ccccc2)(c2ccccc2)C(=O)N1 [DPB, 5,5-diphenyl barbituric acid] ?
OUTPUT: 1210 µg·h/mL

---

Test description: Pharmacokinetics of MMMDPB and DPB after oral MMMDPB or NaMMMDPB and intravenous NaMMMDPB
Format: in vivo, Beagle dogs
Condition: dog, in vivo, po, 30 mg/kg, Oral, 30 mg/kg, analyte MMMDPB; read-out: AUC0-t
Measured attribute: AUC(0-t) (ng·h/mL)
Could you give me the number in ng·h/mL? Just the number is fine.

INPUT: I would be grateful if you could share the reported AUC(0-t) for COCN1C(=O)NC(=O)C(c2ccccc2)(c2ccccc2)C1=O .
OUTPUT: 29400

---

Test description: Pharmacokinetics of MMMDPB and DPB after oral MMMDPB or NaMMMDPB and intravenous NaMMMDPB
Assay type: in vivo, Beagle dogs
Condition: dog, in vivo; Oral, 30 mg/kg, analyte DPB; read-out: F (absolute bioavailability)
Measured attribute: bioavailability (%)
# unit: % | format: bare number

INPUT: Given the molecule COCN1C(=O)NC(=O)C(c2ccccc2)(c2ccccc2)C1=O [NaMMMDPB] , what is its reported bioavailability?
OUTPUT: 315

---

Test description: Pharmacokinetics of DPB after oral DPB or NaDPB and intravenous NaDPB
Format: in vivo, Sprague-Dawley rats
Condition: rat, in vivo, iv, 150 mg/kg, IV infusion, analyte DPB, female, read-out: AU0-24
Measured attribute: AUC at 24 h

INPUT: Query (molecule): O=C1NC(=O)C(c2ccccc2)(c2ccccc2)C(=O)N1.[Na] [NaDPB, sodium 5,5-diphenyl barbiturate] ; field requested: AUC at 24 h
OUTPUT: 3400 µg·h/mL

---

Test description: Pharmacokinetics of MMMDPB and DPB after oral MMMDPB or NaMMMDPB and intravenous NaMMMDPB
Assay type: in vivo, Beagle dogs
Condition: dog, in vivo, iv, 15 mg/kg, IV infusion, analyte DPB
Measured attribute: Tmax (h)
Numbers only; they are read as h.

INPUT: # input compound: COCN1C(=O)NC(=O)C(c2ccccc2)(c2ccccc2)C1=O ; wanted: its Tmax
OUTPUT: 3.13

---

Test description: in vivo
Format: in vivo, Beagle dogs
Condition: dog, in vivo; Oral, 30 mg/kg, analyte DPB; read-out: AUC0-t
Measured attribute: AUC(0-t) (µg·h/mL)
Numeric answer only, unit µg·h/mL assumed.

INPUT: Which AUC(0-t) is reported for this compound? COCN1C(=O)NC(=O)C(c2ccccc2)(c2ccccc2)C1=O
OUTPUT: 193

---

Test description: Pharmacokinetics of MMMDPB and DPB after oral MMMDPB or NaMMMDPB and intravenous NaMMMDPB
Type: in vivo, Beagle dogs
Condition: dog, in vivo, po, 30 mg/kg, analyte DPB
Method: In accordance with the present invention, pharmacokinetic parameters were calculated using standard non-compartmental methods, as implemented in WinNonlin™ 4.0.1. […] AUC0-t was calculated using the linear trapezoidal rule, which employs an approximate integration formula. The area of each trapezoid was calculated, and the sum of all the areas of all the trapezoids yielded an estimate of the true area under the curve. […]
Measured attribute: Tmax
Note: state the figure and append the unit.

INPUT: Using the record for COCN1C(=O)NC(=O)C(c2ccccc2)(c2ccccc2)C1=O , report its Tmax.
OUTPUT: 7.28 h
